Where do the numbers come from? From patent US8586611B2.

Tested on: Phytophthora infestans
Experiment: whole plant or invertebrate
Assay type: in vivo
Settings: tomato late blight; spray 17 h after inoculation; compounds without asterisk (not 40 or 10 ppm)
Recorded Test D disease rating (100 = 100% disease control, 0 = no disease control) for the following compounds
Supply the numeric figure in %, leaving out any unit text.

>>> df
                                   compound  data_value
0  Cc1ccc(C)c(CC(=O)N2CCC(c3nc(C(=O)N(C)[C@H](C)c4ncc(Cl)cc4Cl)cs3)CC2)c1 [compound 111]          37
1  Cc1ccc(C)c(CC(=O)N2CCC(c3nc(C(=O)N(C)[C@H](C)c4ccc(Br)cc4)cs3)CC2)c1 [compound 63]          93
2  Cc1ccc(C)c(CC(=O)N2CCC(c3nc(C(=O)N(C)C4CSCc5ccccc54)cs3)CC2)c1 (centres unmarked) [compound 172]         100
3  Cc1cc(C(C)C)nn1CC(=O)N1CCC(c2nc(C(=O)N(C)[C@H](C)c3ccccc3)cs2)CC1 [compound 127]           0
4  Cc1ccn(CC(=O)N2CCC(c3nc(C(=O)N(C)[C@H](C)c4ccccc4)cs3)CC2)n1 [compound 72]          66

// next item, Test D disease rating (100 = 100% disease control, 0 = no disease control) requested
For reference, reported Test D disease rating (100 = 100% disease control, 0 = no disease control) for C[C@H](c1ccccc1)N(C)C(=O)c1coc(N2CCN(C(=O)Cc3cc(C(F)(F)F)ccc3Cl)CC2)n1 [compound 51] stands at 96

====

Tested on: Phytophthora infestans
Assay: whole plant or invertebrate
Assay type: in vivo
Conditions: tomato late blight; spray 17 h after inoculation; compounds without asterisk (not 40 or 10 ppm)
Binary call on Test D disease rating (100 = 100% disease control, 0 = no disease control) with cut-off 50%: strictly below means condition met, and equality or higher means condition not met.

Reference set (5 entries):
>>> print(df.to_string())
                                   compound        label_value
0  Cc1cc(C(F)(F)F)nn1CC(=O)N1CCC(c2nc(C(=O)N(C)C3CCCc4c(O)cccc43)cs2)CC1 (stereo not shown)  condition not met
1  COc1ccc(Br)cc1CC(=O)N1CCC(c2nc(C(=O)N(C)[C@H](C)c3ccccc3)cs2)CC1  condition not met
2  C[C@H](c1ccccc1)N(C)C(=O)c1csc(C2CCN(C(=O)Cc3cc(C(F)(F)F)ccc3C(F)(F)F)CC2)n1      condition met
3  Cc1nc(CC(=O)N2CCC(c3nc(C(=O)N(C)[C@H](C)c4ccccc4)cs3)CC2)c(C)s1  condition not met
4  CCOc1ccccc1CC(=O)N1CCC(c2nc(C(=O)N(C)[C@H](C)c3ccccc3)cs2)CC1      condition met

Find out if reported Test D disease rating (100 = 100% disease control, 0 = no disease control) for "CC[C@H](c1ccccc1)N(C)C(=O)c1csc(C2CCN(C(=O)Cc3cc(C(F)(F)F)ccc3Cl)CC2)n1" is less than 50% condition not met

Find out if reported Test D disease rating (100 = 100% disease control, 0 = no disease control) for CCC(C)c1cc(C)n(CC(=O)N2CCC(c3nc(C(=O)N(C)[C@H](C)c4ccccc4)cs3)CC2)n1 (stereo partly shown) is less than 50% condition met
